Numbers sourced from PubChem BioAssay (NCI).

So I've got a bunch of compounds here, and I need their TGI values.
Tested on: T-47D breast
assay-comment: NCI tumour cell line growth inhibition, 48 h

The reported value for Cc1cnc2c(c1C)C(=O)c1ccccc1C2=O in terms of TGI is > 100 µM

Form: compound = CCN1C(=O)N(CC)C2C1NN=c1s/c(=C\c3ccc(F)cc3)c(=O)n12 (stereo not drawn) ; TGI = > 100 µM

# compound CCCCNc1nc(NC2OCC(OC(C)=O)C(OC(C)=O)C2OC(C)=O)c(N=O)c(=O)n1C (stereo not drawn) ; its TGI = > 10 µM

----------
For each entry below, report its TGI value.
System: NCI-H23 lung
assay-comment: NCI tumour cell line growth inhibition, 48 h

# TGI of ClC1=C(Cl)C(Cl)(Cl)c2c3c(c4c(c21)C(Cl)(Cl)C(Cl)=C4Cl)C(Cl)(Cl)C(Cl)=C3Cl = > 100 µM

Record CC(C)(C)NC(=O)CCC1C(C(=O)NC(C)(C)C)C2(Cl)C(Cl)=C(Cl)C1(Cl)C2(Cl)Cl (stereo not given) . Reported TGI: > 100 µM

Documented TGI of Clc1ccc(C2ON=C(c3ccccc3)N2C23CC4CC(CC(C4)C2)C3)cc1 (stereo not given) : > 10 µM

Record CN1CCN(c2ccc3c(c2)NCC(=O)N3)CC1 , field TGI: > 100 µM

Just so you know, measured TGI for Cc1ccccc1C(=O)C1CCCCC1O (stereo not given) came out at > 100 µM

----------
Tested on: SF-295 CNS
assay-comment: NCI tumour cell line growth inhibition, 48 h
parameter: TGI

Entry under test: CC(C)/C(Cl)=N/OC(=O)Nc1ccc(Cl)c(Cl)c1 . Its TGI was 32.2 µM

// field: TGI; key: CC1(C)CC(=O)c2c(nc3c4c([nH]c(-c5ccc(Br)cc5)c24)CC(C)(C)C3)C1 ; value = > 100 µM

Recorded result, CN1CCN(CCCCCN=c2cc3c(=O)n(CCCCCN4CCN(C)CC4)c(=O)c4c(NCCCCCN5CCN(C)CC5)cc5c(O)n(CCCCCN6CCN(C)CC6)c(=O)c2c5c4-3)CC1 , TGI: 57.2 µM

Lab note: measured TGI of NC1=NC(=O)C(CC(=O)Nc2ccc(Cl)cc2Cl)S1 (stereo not drawn) was > 100 µM

Recorded TGI (molecule COc1cc(C2(C)SCCCS2)cc(OC)c1OC ): > 100 µM

Consider COc1cc(O)c2c(=O)c(OC)c(-c3ccc(OC)c(OC)c3)oc2c1 . Its measured TGI is > 100 µM

The value of TGI measured for the molecule O=C(Nc1ccccc1OC(=O)c1ccccc1)c1ccccc1 turned out to be 8.03 µM

Entry Cn1c(=O)n2n(c1=O)C(C)(C13CC4CC(CC(C4)C1)C3)C13CC4CC(CC1C4)CC23 (stereo not drawn) — recorded TGI = > 100 µM

# TGI of c1ccc2c(c1)CCc1c-2n[nH]c1-c1[nH]nc2c1CCc1ccccc1-2 = > 100 µM

The reported value for c1cc(N2CCN(c3ccc(C4=NCCCN4)cc3)CC2)ccc1C1=NCCCN1 in terms of TGI is > 100 µM

Sure, the documented TGI for C=CCC1(C)CCCN(Cc2ccccc2)C1=O (stereo not drawn) is > 10 µM

Per the record, COc1cc2cc(Oc3ccc(NC(=O)c4ccc(Cl)c(Cl)c4)cc3)c(C)nc2cc1OC has TGI of > 100 µM

For O=Cc1ccc2c(c1I)OCO2 the molecule record lists TGI as > 100 µM

Just so you know, measured TGI for COC(=O)Cc1c(-c2c(CC(=O)OC)c3ccccc3n2C2OC(COC(C)=O)C(OC(C)=O)C(OC(C)=O)C2OC(C)=O)[nH]c2ccccc12 (stereo not drawn) came out at > 100 µM

Noted for CCCCCCCCCCCC[N+](CCCCCCCCCCCC)=C1SCCS1 : its TGI reads 11.6 µM

So for COc1ccc(Nc2ccc([N+](=O)[O-])cc2[N+](=O)[O-])cc1CN(CCCl)CCCl , the logged TGI turned out to be 19.7 µM

TGI reading for COc1cc(CNc2nc3ccccc3nc2C(=O)O)cc(OC)c1OC : > 100 µM

The recorded TGI for O=[N+]([O-])c1ccc(C(O)(C#CCN2CCCC2)c2ccccc2)cc1 (stereo not drawn) is > 100 µM

For Cc1[nH]nc(-c2ccon2)c1N=O the molecule record lists TGI as 34.6 µM

So for COc1cc(Nc2nc3cc(C(F)(F)F)ccc3n3cccc23)cc(OC)c1OC , the logged TGI turned out to be > 100 µM

In plain terms, CC(=O)O[C@H]1CC[C@@]2(C)C(=CC[C@@H]3[C@@H]2CC[C@]2(C)c4nc(Cl)ccc4C[C@@H]32)C1 has a documented TGI of 83.3 µM

Recorded result, CC(C)(C)OC(=O)NCCCCC(N)NC(=O)c1ccccc1 (stereo not drawn) , TGI: > 100 µM

So, COc1ccc(C2=NOC(N)(c3ccc(OC)cc3)C2)cc1 (stereo not drawn) ? Its TGI was > 100 µM

TGI in this record for CCc1c(C)nc2sc3c(N)ncnc3c2c1C : > 25 µM

Form: molecule = CC1CC(C#N)=C2NCCN2C1=O (stereo not drawn) ; TGI = > 100 µM

The recorded TGI for O=C(O)c1ccccc1NC(=S)c1ccccc1 is > 100 µM

Note to self: TGI recorded for C[C@@H]1Cc2cc(O)ccc2[C@H]2CC[C@]3(C)/C(=C/COCCN(C)C)CC[C@H]3[C@H]12 (tested in a mixture with another compound) was 0.474 µM

// field: TGI; key: N#C/C(C(=S)NCc1ccccc1)=C(/N)N1CCCC1 ; value = > 100 µM

The molecule identified as CC(C)(CCC(C)(C)N1OC1c1ccccc1)N1OC1c1ccccc1 (stereo not drawn) registered its TGI at > 100 µM

The reported value for CC1=C(CC2C(=O)N(c3ccccc3)S(=O)(=O)NC2C)C(=O)N(c2ccccc2)S(=O)(=O)N1C (stereo not drawn) in terms of TGI is > 100 µM

Sample COc1cc(-c2nn(-c3cccc(NC(=O)CCN4CCN(Cc5ccccc5)CC4)c3)cc2-c2ccncc2)ccc1Cl ; TGI observed: 1.95 µM

The measured TGI associated with Cc1cc2c(cc1C)[n+](=O)c(C(=O)c1ccccc1)c(C(F)(F)F)n2[O-] reads 10.6 µM

// TGI value for COc1cc2ncc3c(nc4sccn43)c2cc1OC : 62.8 µM
